- Tested on: NCI-H460 lung
- test: NCI-60 one-dose screen, 48 h
- details: 10 µM unless noted
The panel holds about 83,000 compounds, 20% with a hit somewhere; the sample as a whole holds those more often. Activity calls are given as the source filed them. The calls were made as follows: active = growth percent below 10; inactive = the rest.
Respond only with the outcome that fits, drawn from active, inactive

Query block: Identify the outcome logged in this assay for the compound shown: Cc1cccc(OCC(O)CN2CCN(c3ccc(Cl)cc3)CC2)c1 (stereo not given)
Result block: inactive

Query block: Identify the outcome logged in this assay for the compound shown: Cc1ccc2c(-c3cc(-c4ccccc4)nc(N)c3C#N)cc(=O)oc2c1
Result block: inactive

Query block: Identify the outcome logged in this assay for the compound shown: N#C/C(=C\c1ccc(F)cc1)n1nc2cccc(F)c2n1
Result block: inactive

Query block: Identify the outcome logged in this assay for the compound shown: COc1c(C2CC(=O)Nc3c2c(C)nn3-c2nc3ccccc3[nH]2)cc2c(c1OC)OCO2 (stereo not given)
Result block: inactive

Query block: Identify the outcome logged in this assay for the compound shown: N/C(=N\c1nc2ccccc2s1)NC(=O)Nc1cccc2ccccc12
Result block: inactive

Query block: Identify the outcome logged in this assay for the compound shown: Cc1c(C(=O)NCCCc2ccccc2)sc2ncc(-c3ccc(Br)cc3)n12
Result block: inactive

Query block: Identify the outcome logged in this assay for the compound shown: COc1cc2cc(Oc3ccc(NC(=O)Nc4ccc(Cl)c(C(F)(F)F)c4)cc3)c(C)nc2cc1OCCN1CCOCC1
Result block: active

Query block: Identify the outcome logged in this assay for the compound shown: CCc1ccc(Oc2c(-c3ccc(OCc4ccc(Cl)cc4)cc3O)nn(C)c2C(F)(F)F)cc1
Result block: active

Query block: Identify the outcome logged in this assay for the compound shown: Cc1ccc(-c2nc(N3CCN(CC(=O)Nc4ccc(Cl)cc4)CC3)c3ccccc3n2)cc1
Result block: inactive

Query block: Identify the outcome logged in this assay for the compound shown: Cc1nc2cnc(N)c(C#Cc3cncc(C(=O)Nc4ccc(CN5CCN(C)CC5)c(C(F)(F)F)c4)c3)c2nc1C
Result block: active

###

- Tested on: SF-268 CNS
- test: NCI-60 one-dose screen, 48 h (100 = growth as untreated, 0 = no growth, -100 = all killed)
- details: 10 µM unless noted
Compounds without any hit were thinned out: in the full panel of roughly 83,000, 20% have a hit. Activity calls are given as the source filed them. Rule for the calls: active = growth percent below 10; inactive = the rest.
Can you tell me growth for the items I'm about to list?

Quick note, growth for C/C(=C\C(=O)c1ccc(Cl)cc1)c1ccc(Cl)cc1 landed at 96.4% (inactive)

Quick note, growth for CN1CCN(CC(=O)N2c3cccc4cccc(c34)N(C(=O)CN3CCN(C)CC3)C2c2cn(-c3ccccc3)nc2-c2cccc([N+](=O)[O-])c2)CC1 landed at 7.89% (active)

Quick note, growth for COc1cccc2c(=O)c3c(sc12)c(N1CCNCC1)nc1ccccc13 landed at 87.9% (inactive)

Quick note, growth for C=C(C)[C@@H]1CC[C@]2(N=C=O)CC[C@]3(C)[C@H](CC[C@@H]4[C@@]5(C)Cc6c([nH]c7ccccc67)C(C)(C)[C@@H]5CC[C@]43C)[C@@H]12 landed at 80.7% (inactive)

Read the next record carefully.
Quick note, growth for C(=N/Nc1ncnc2nc[nH]c12)/c1ccccn1 landed at 26.6% (inactive)

###

- Tested on: SF-268 CNS
- test: NCI-60 one-dose screen, 48 h (100 = growth as untreated, 0 = no growth, -100 = all killed)
- details: 10 µM unless noted
This is part of a sample that, as a whole, favours compounds with a hit. Of some 83,000 tested, about 20% had one in any assay.
measured_parameter: growth (%)
Answers are plain numbers, in %.

Dear reader, for each entry below, please note its growth.
1. Cc1cc2nc3ccc(N=Nc4ccc(N(C)C)cc4)cc3n(-c3ccccc3)c-2cc1=N
2. O=C(/C=C/c1sc(Cl)nc1Cl)c1ccccc1
3. COc1ccc(-c2[nH]c3ccc(OC)cc3c2/C=C(\C#N)S(=O)(=O)c2ccccc2)cc1
4. CN(C)CC#Cc1ccc2ncc(C#N)c(Nc3ccc(F)c(Cl)c3)c2c1
5. O=C(/C=C/c1sc(Cl)nc1Cl)c1ccc(Br)cc1

Result block:
1: -78.1; 2: 104; 3: 33.8; 4: 59.2; 5: 94.1

Values compiled from PubChem BioAssay (NCI).
